- System: 138582-337-R-J1-PDC spheroids with HUVEC/MSC, viability
- run.description: Anticancer human tumor 138582-337-R-J1-PDC patient-derived Merkel cell tumor cell line growth inhibition [IpAb]
- test.settings: second compound 0.1 µM; first compound 0.0949 µM; active compounds read low
Friendly reminder: viability, T/C below 80% is y, at or above is n.

{"compound": "Cn1cnc2c(F)c(Nc3ccc(Br)cc3Cl)c(C(=O)NOCCO)cc21 + CC(C)NCC(C(=O)N1CCN(c2ncnc3c2C(C)CC3O)CC1)c1ccc(Cl)cc1", "class": "n"}
{"compound": "CC(C)(C)c1cnc(CSc2cnc(NC(=O)C3CCNCC3)s2)o1 + CCN1CCN(Cc2ccc(Nc3ncc(F)c(-c4cc(F)c5nc(C)n(C(C)C)c5c4)n3)nc2)CC1", "class": "y"}
{"compound": "CC(C)(C)c1cnc(CSc2cnc(NC(=O)C3CCNCC3)s2)o1 + CC(C)NCC(C(=O)N1CCN(c2ncnc3c2C(C)CC3O)CC1)c1ccc(Cl)cc1", "class": "y"}
{"compound": "CC(=O)c1c(C)c2cnc(Nc3ccc(N4CCNCC4)cn3)nc2n(C2CCCC2)c1=O + CC(C)NCC(C(=O)N1CCN(c2ncnc3c2C(C)CC3O)CC1)c1ccc(Cl)cc1", "class": "n"}

* * *

- System: 138582-337-R-J1-PDC spheroids with HUVEC/MSC, viability
- run.description: Anticancer human tumor 138582-337-R-J1-PDC cell line growth inhibition [IpAb]
- test.settings: second compound 1 µM; first compound 10 µM; active compounds read low
Friendly reminder: viability, T/C below 60% is label 1, at or above is label 0.

{"molecule": "Cn1nccc1Nc1nccc(-c2ccn(C(CO)c3ccc(Cl)c(F)c3)c(=O)c2)n1 (stereo not given) + CC(C)NCC(C(=O)N1CCN(c2ncnc3c2C(C)CC3O)CC1)c1ccc(Cl)cc1", "class": "label 1"}
{"molecule": "Cn1ncc(Cl)c1-c1cc(C(=O)NC(CN)Cc2cccc(F)c2)sc1Cl (stereo not given) + CC(C)NCC(C(=O)N1CCN(c2ncnc3c2C(C)CC3O)CC1)c1ccc(Cl)cc1", "class": "label 1"}
{"molecule": "Cn1nccc1Nc1nccc(-c2ccn(C(CO)c3ccc(Cl)c(F)c3)c(=O)c2)n1 (stereo not given) + CCN1CCN(Cc2ccc(Nc3ncc(F)c(-c4cc(F)c5nc(C)n(C(C)C)c5c4)n3)nc2)CC1", "class": "label 0"}
{"molecule": "C=CC(=O)N1CCN(c2nc(=O)n(-c3c(C)ccnc3C(C)C)c3nc(-c4c(O)cccc4F)c(F)cc23)C(C)C1 (stereo not given) + CC(C)NCC(C(=O)N1CCN(c2ncnc3c2C(C)CC3O)CC1)c1ccc(Cl)cc1", "class": "label 0"}

* * *

- System: 138582-337-R-J1-PDC spheroids with HUVEC/MSC, viability
- run.description: Anticancer human tumor 138582-337-R-J1-PDC cell line growth inhibition [IpAb];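 further: spheroids exposed to compounds for seven days; 100% = DMSO vehicle control viability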
- test.settings: second compound 1 µM; first compound 0.01 µM; active compounds read low
Friendly reminder: viability, T/C below 60% is satisfied, at or above is not satisfied.

{"compound": "Cn1ncnc1[C@H]1c2n[nH]c(=O)c3cc(F)cc(c23)N[C@@H]1c1ccc(F)cc1 + CCN1CCN(Cc2ccc(Nc3ncc(F)c(-c4cc(F)c5nc(C)n(C(C)C)c5c4)n3)nc2)CC1", "experimental.system": "138582-337-R-J1-PDC spheroids with HUVEC/MSC, viability", "class": "not satisfied"}
{"compound": "CC(C)n1nc(-c2ccc3oc(N)nc3c2)c2c(N)ncnc21 + CC(C)NCC(C(=O)N1CCN(c2ncnc3c2C(C)CC3O)CC1)c1ccc(Cl)cc1", "experimental.system": "138582-337-R-J1-PDC spheroids with HUVEC/MSC, viability", "class": "satisfied"}
{"compound": "COc1c(OCCCN2CCOCC2)ccc2c3n(c(=NC(=O)c4cnc(N)nc4)nc12)CCN3 + CCN1CCN(Cc2ccc(Nc3ncc(F)c(-c4cc(F)c5nc(C)n(C(C)C)c5c4)n3)nc2)CC1", "experimental.system": "138582-337-R-J1-PDC spheroids with HUVEC/MSC, viability", "class": "not satisfied"}
{"compound": "Cn1ncnc1[C@H]1c2n[nH]c(=O)c3cc(F)cc(c23)N[C@@H]1c1ccc(F)cc1 + CC(C)NCC(C(=O)N1CCN(c2ncnc3c2C(C)CC3O)CC1)c1ccc(Cl)cc1", "experimental.system": "138582-337-R-J1-PDC spheroids with HUVEC/MSC, viability", "class": "not satisfied"}
{"compound": "COc1c(OCCCN2CCOCC2)ccc2c3n(c(=NC(=O)c4cnc(N)nc4)nc12)CCN3 + CC(C)NCC(C(=O)N1CCN(c2ncnc3c2C(C)CC3O)CC1)c1ccc(Cl)cc1", "experimental.system": "138582-337-R-J1-PDC spheroids with HUVEC/MSC, viability", "class": "satisfied"}

* * *

- Test system: 138582-337-R-J1-PDC spheroids with HUVEC/MSC, viability
- run.description: Anticancer human tumor 138582-337-R-J1-PDC cell line growth inhibition [IpAb];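 further: spheroids exposed to compounds for seven days; 100% = DMSO vehicle control viability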
- test.settings: second compound 1 µM; first compound 0.949 µM; active compounds read low
Listed next: entries and their corresponding viability, T/C.

{"compound": "Cn1cnc2c(F)c(Nc3ccc(Br)cc3Cl)c(C(=O)NOCCO)cc21 + CC(C)NCC(C(=O)N1CCN(c2ncnc3c2C(C)CC3O)CC1)c1ccc(Cl)cc1", "viability, T/C": "42.4%"}
{"compound": "Cn1cnc2c(F)c(Nc3ccc(Br)cc3Cl)c(C(=O)NOCCO)cc21 + CCN1CCN(Cc2ccc(Nc3ncc(F)c(-c4cc(F)c5nc(C)n(C(C)C)c5c4)n3)nc2)CC1", "viability, T/C": "73.1%"}
{"compound": "CC(C)(C)c1cnc(CSc2cnc(NC(=O)C3CCNCC3)s2)o1 + CC(C)NCC(C(=O)N1CCN(c2ncnc3c2C(C)CC3O)CC1)c1ccc(Cl)cc1", "viability, T/C": "0.35%"}
{"compound": "CC(C)(C)c1cnc(CSc2cnc(NC(=O)C3CCNCC3)s2)o1 + CCN1CCN(Cc2ccc(Nc3ncc(F)c(-c4cc(F)c5nc(C)n(C(C)C)c5c4)n3)nc2)CC1", "viability, T/C": "0.5%"}

* * *

Listed next: entries and their corresponding viability, T/C.
- Tested on: 138582-337-R-J1-PDC spheroids with HUVEC/MSC, viability
- run.description: Anticancer human tumor 138582-337-R-J1-PDC cell line growth inhibition [IpAb];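 further: spheroids exposed to compounds for seven days; 100% = DMSO vehicle control viability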
- test.settings: second compound 0.316 µM; first compound 0.001 µM; active compounds read low

{"molecule": "CC(C)n1nc(-c2ccc3oc(N)nc3c2)c2c(N)ncnc21 + CC(C)NCC(C(=O)N1CCN(c2ncnc3c2C(C)CC3O)CC1)c1ccc(Cl)cc1", "experimental.system": "138582-337-R-J1-PDC spheroids with HUVEC/MSC, viability", "viability, T/C (%)": 66}
{"molecule": "Cn1ncnc1[C@H]1c2n[nH]c(=O)c3cc(F)cc(c23)N[C@@H]1c1ccc(F)cc1 + CCN1CCN(Cc2ccc(Nc3ncc(F)c(-c4cc(F)c5nc(C)n(C(C)C)c5c4)n3)nc2)CC1", "experimental.system": "138582-337-R-J1-PDC spheroids with HUVEC/MSC, viability", "viability, T/C (%)": 95.8}
{"molecule": "Cn1ncnc1[C@H]1c2n[nH]c(=O)c3cc(F)cc(c23)N[C@@H]1c1ccc(F)cc1 + CC(C)NCC(C(=O)N1CCN(c2ncnc3c2C(C)CC3O)CC1)c1ccc(Cl)cc1", "experimental.system": "138582-337-R-J1-PDC spheroids with HUVEC/MSC, viability", "viability, T/C (%)": 81.8}
{"molecule": "CC(C)n1nc(-c2ccc3oc(N)nc3c2)c2c(N)ncnc21 + CCN1CCN(Cc2ccc(Nc3ncc(F)c(-c4cc(F)c5nc(C)n(C(C)C)c5c4)n3)nc2)CC1", "experimental.system": "138582-337-R-J1-PDC spheroids with HUVEC/MSC, viability", "viability, T/C (%)": 96.6}

* * *

- Tested on: 138582-337-R-J1-PDC spheroids with HUVEC/MSC, viability
- run.description: Anticancer human tumor 138582-337-R-J1-PDC cell line growth inhibition [IpAb];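 further: spheroids exposed to compounds for seven days; 100% = DMSO vehicle control viability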
- test.settings: second compound 0.316 µM; first compound 0.000316 µM; active compounds read low
Listed next: entries and their corresponding viability, T/C.

{"molecule": "CC(C)n1nc(-c2ccc3oc(N)nc3c2)c2c(N)ncnc21 + CC(C)NCC(C(=O)N1CCN(c2ncnc3c2C(C)CC3O)CC1)c1ccc(Cl)cc1", "experimental.system": "138582-337-R-J1-PDC spheroids with HUVEC/MSC, viability", "viability, T/C, %": 67.8}
{"molecule": "Cn1ncnc1[C@H]1c2n[nH]c(=O)c3cc(F)cc(c23)N[C@@H]1c1ccc(F)cc1 + CC(C)NCC(C(=O)N1CCN(c2ncnc3c2C(C)CC3O)CC1)c1ccc(Cl)cc1", "experimental.system": "138582-337-R-J1-PDC spheroids with HUVEC/MSC, viability", "viability, T/C, %": 69.7}
{"molecule": "Cn1ncnc1[C@H]1c2n[nH]c(=O)c3cc(F)cc(c23)N[C@@H]1c1ccc(F)cc1 + CCN1CCN(Cc2ccc(Nc3ncc(F)c(-c4cc(F)c5nc(C)n(C(C)C)c5c4)n3)nc2)CC1", "experimental.system": "138582-337-R-J1-PDC spheroids with HUVEC/MSC, viability", "viability, T/C, %": 85}
{"molecule": "CC(C)n1nc(-c2ccc3oc(N)nc3c2)c2c(N)ncnc21 + CCN1CCN(Cc2ccc(Nc3ncc(F)c(-c4cc(F)c5nc(C)n(C(C)C)c5c4)n3)nc2)CC1", "experimental.system": "138582-337-R-J1-PDC spheroids with HUVEC/MSC, viability", "viability, T/C, %": 96.5}
